Items are presented alongside their recorded MIC.
- Test system: Acinetobacter baumannii
- assay explanation: Antibacterial activity against beta-lactam resistant Acinetobacter baumannii by broth microdilution method
- Format: functional
- study conditions: Acinetobacter baumannii; read-out: MIC

Below are worked cases with known answers.
smiles string	MIC
Cn1c(CN2CCCC2)cc2cc3c(cc21)CCCc1c-3[nH]c(=O)c(C(=O)O)c1O	0.12 to 16 µg/mL
CCNCc1cc2cc(-c3[nH]c(=O)c(C(=O)O)c(O)c3CC)ccc2n1C	0.5 to 32 µg/mL
CCNCc1cc2cc3c(cc2n1C)CCCc1c-3[nH]c(=O)c(C(=O)O)c1O	0.25 to 32 µg/mL
CC(C)NCc1cc2cc3c(cc2n1C)CCCc1c-3[nH]c(=O)c(C(=O)O)c1O	0.25 to 32 µg/mL
CN(C)Cc1cc2cc3c(cc2n1C)CCCc1c-3[nH]c(=O)c(C(=O)O)c1O	0.12 to 16 µg/mL

With those in mind, consider the next compound.
Note to self: MIC recorded for Cn1c(CN2CCCC2)cc2cc3c(cc21)OCCc1c-3[nH]c(=O)c(C(=O)O)c1O was 0.12 to 16 µg/mL

* * *

- assay explanation: Inhibition of Escherichia coli DNA topoisomerase 4 assessed as reduction in decatenation activity using kinetoplast concatenated DNA as substrate after 30 mins by picogreen dye based fluorescence assay
readout type: pIC50
By convention, pIC50 is the negative base-10 log of a molar concentration.

Below are worked cases with known answers.
smiles string	pIC50
CNCc1cc2c3c(ccc2n1C)-c1[nH]c(=O)c(C(=O)O)c(O)c1CCC3	4.55
CCNCc1cc2c3c(ccc2n1C)-c1[nH]c(=O)c(C(=O)O)c(O)c1CCC3	4.72
CCNCc1cc2cc(-c3[nH]c(=O)c(C(=O)O)c(O)c3CC)ccc2n1C	5.48

Note to self: pIC50 recorded for CNCc1cc2cc3c(cc2n1C)CCCc1c-3[nH]c(=O)c(C(=O)O)c1O was 5.43

Note to self: pIC50 recorded for CCNCc1cc2cc3c(cc2n1C)CCCCc1c-3[nH]c(=O)c(C(=O)O)c1O was 4.82

Note to self: pIC50 recorded for CCNCc1cc2cc3c(cc2n1C)CCCc1c-3[nH]c(=O)c(C(=O)O)c1O was 5.54

* * *

Items are presented alongside their recorded MIC50.
- Tested on: Escherichia coli
- assay explanation: Antibacterial activity against quinolone resistant Escherichia coli by broth microdilution method
- Format: functional
- study conditions: Escherichia coli

Below are worked cases with known answers.
compound	MIC50
C[C@H]1COc2c(N3CCN(C)CC3)c(F)cc3c(=O)c(C(=O)O)cn1c23.C[C@H]1COc2c(N3CCN(C)CC3)c(F)cc3c(=O)c(C(=O)O)cn1c23.O [LEVOFLOXACIN]	0.06 µg/mL
CCNCc1cc2cc(-c3[nH]c(=O)c(C(=O)O)c(O)c3CC)ccc2n1C	1 µg/mL

I looked up CN(C)Cc1cc2cc3c(cc2n1C)OCCc1c-3[nH]c(=O)c(C(=O)O)c1O and its MIC50 for Escherichia coli was 0.5 µg/mL

* * *

- System: Acinetobacter baumannii
- assay explanation: Antibacterial activity against carbapenem resistant Acinetobacter baumannii by broth microdilution method
- Assay type: functional
- study conditions: Acinetobacter baumannii; read-out: MIC
readout type: MIC

Below are worked cases with known answers.
smiles string	MIC
CN(C)Cc1cc2cc3c(cc2n1C)CCCc1c-3[nH]c(=O)c(C(=O)O)c1O	0.12 to 16 µg/mL
CCNCc1cc2cc3c(cc2n1C)CCCc1c-3[nH]c(=O)c(C(=O)O)c1O	0.25 to 32 µg/mL
Cn1c(CN2CCCC2)cc2cc3c(cc21)CCCc1c-3[nH]c(=O)c(C(=O)O)c1O	0.12 to 16 µg/mL
Cn1c(CN2CCCC2)cc2cc3c(cc21)OCCc1c-3[nH]c(=O)c(C(=O)O)c1O	0.12 to 16 µg/mL

I looked up CCNCc1cc2cc(-c3[nH]c(=O)c(C(=O)O)c(O)c3CC)ccc2n1C and its MIC for Acinetobacter baumannii was 0.5 to 32 µg/mL

I looked up CC(C)NCc1cc2cc3c(cc2n1C)CCCc1c-3[nH]c(=O)c(C(=O)O)c1O and its MIC for Acinetobacter baumannii was 0.25 to 32 µg/mL

* * *

Items are presented alongside their recorded MIC50.
- System: Escherichia coli
- assay explanation: Antibacterial activity against beta-lactam resistant Escherichia coli by broth microdilution method
- Assay type: functional
- study conditions: Escherichia coli
// note: answer is a bare numeric in µg/mL

molecule	unit string	MIC50
C[C@H]1COc2c(N3CCN(C)CC3)c(F)cc3c(=O)c(C(=O)O)cn1c23.C[C@H]1COc2c(N3CCN(C)CC3)c(F)cc3c(=O)c(C(=O)O)cn1c23.O [LEVOFLOXACIN]	µg/mL	0.06
CN(C)Cc1cc2cc3c(cc2n1C)CCCc1c-3[nH]c(=O)c(C(=O)O)c1O	µg/mL	0.5

I looked up CCNCc1cc2cc(-c3[nH]c(=O)c(C(=O)O)c(O)c3CC)ccc2n1C and its MIC50 for Escherichia coli was 1

I looked up CCNCc1cc2cc3c(cc2n1C)CCCc1c-3[nH]c(=O)c(C(=O)O)c1O and its MIC50 for Escherichia coli was 1

I looked up Cn1c(CN2CCCC2)cc2cc3c(cc21)OCCc1c-3[nH]c(=O)c(C(=O)O)c1O and its MIC50 for Escherichia coli was 0.5

I looked up CC(C)NCc1cc2cc3c(cc2n1C)CCCc1c-3[nH]c(=O)c(C(=O)O)c1O and its MIC50 for Escherichia coli was 0.5

I looked up CN(C)Cc1cc2cc3c(cc2n1C)OCCc1c-3[nH]c(=O)c(C(=O)O)c1O and its MIC50 for Escherichia coli was 0.5

I looked up Cn1c(CNC2(C)CCC2)cc2cc3c(cc21)OCCc1c-3[nH]c(=O)c(C(=O)O)c1O and its MIC50 for Escherichia coli was 0.5

* * *

- System: Mus musculus
- assay explanation: Terminal half life in CD1 mouse plasma at 10 mg/kg, iv by LC-MS/MS analysis
- Format: ADME, organism-based
- study conditions: in vivo
Items are presented alongside their recorded beta t1/2.
// note: answer is a bare numeric in h

smiles string	readout type	unit string	endpoint value
CN(C)Cc1cc2cc3c(cc2n1C)OCCc1c-3[nH]c(=O)c(C(=O)O)c1O	beta t1/2	h	3.1

Note to self: beta t1/2 recorded for Cn1c(CNC2(C)CCC2)cc2cc3c(cc21)OCCc1c-3[nH]c(=O)c(C(=O)O)c1O was 3.3

Note to self: beta t1/2 recorded for Cn1c(CN2CCCC2)cc2cc3c(cc21)CCCc1c-3[nH]c(=O)c(C(=O)O)c1O was 2.8

Note to self: beta t1/2 recorded for CN(C)Cc1cc2cc3c(cc2n1C)CCCc1c-3[nH]c(=O)c(C(=O)O)c1O was 2.9

Note to self: beta t1/2 recorded for Cn1c(CNC2(C)CCC2)cc2cc3c(cc21)CCCc1c-3[nH]c(=O)c(C(=O)O)c1O was 3.1

Note to self: beta t1/2 recorded for CC(C)NCc1cc2cc3c(cc2n1C)CCCc1c-3[nH]c(=O)c(C(=O)O)c1O was 11

* * *

- System: Acinetobacter baumannii
- assay explanation: Antibacterial activity against multidrug resistant Acinetobacter baumannii by broth microdilution method
- Format: functional
- study conditions: Acinetobacter baumannii
Items are presented alongside their recorded MIC90.
// note: answer is a bare numeric in µg/mL

molecule	MIC90 / µg/mL
CC(C)NCc1cc2cc3c(cc2n1C)CCCc1c-3[nH]c(=O)c(C(=O)O)c1O	16
CN(C)Cc1cc2cc3c(cc2n1C)OCCc1c-3[nH]c(=O)c(C(=O)O)c1O	16
Cn1c(CNC2(C)CCC2)cc2cc3c(cc21)OCCc1c-3[nH]c(=O)c(C(=O)O)c1O	8
Cn1c(CN2CCCC2)cc2cc3c(cc21)CCCc1c-3[nH]c(=O)c(C(=O)O)c1O	16
Cn1c(CN2CCCC2)cc2cc3c(cc21)OCCc1c-3[nH]c(=O)c(C(=O)O)c1O	8
CCNCc1cc2cc(-c3[nH]c(=O)c(C(=O)O)c(O)c3CC)ccc2n1C	16
CCNCc1cc2cc3c(cc2n1C)CCCc1c-3[nH]c(=O)c(C(=O)O)c1O	16

With those in mind, consider the next molecule.
Note to self: MIC90 recorded for C[C@H]1COc2c(N3CCN(C)CC3)c(F)cc3c(=O)c(C(=O)O)cn1c23.C[C@H]1COc2c(N3CCN(C)CC3)c(F)cc3c(=O)c(C(=O)O)cn1c23.O [LEVOFLOXACIN] was 16

* * *

- Test system: Escherichia coli
- assay explanation: Antibacterial activity against quinolone resistant Escherichia coli by broth microdilution method
- Type: functional
- study conditions: Escherichia coli
readout type: MIC50 (µg/mL)
// note: answer is a bare numeric in µg/mL

smiles string	MIC50 / µg/mL
Cn1c(CN2CCCC2)cc2cc3c(cc21)OCCc1c-3[nH]c(=O)c(C(=O)O)c1O	0.5
Cn1c(CNC2(C)CCC2)cc2cc3c(cc21)OCCc1c-3[nH]c(=O)c(C(=O)O)c1O	0.5
CN(C)Cc1cc2cc3c(cc2n1C)CCCc1c-3[nH]c(=O)c(C(=O)O)c1O	0.5
CCNCc1cc2cc3c(cc2n1C)CCCc1c-3[nH]c(=O)c(C(=O)O)c1O	1

I looked up CC(C)NCc1cc2cc3c(cc2n1C)CCCc1c-3[nH]c(=O)c(C(=O)O)c1O and its MIC50 for Escherichia coli was 0.5
